TESTED TARGET: T1, Formyl-Peptide Receptor 1 (UniProt P21462 1-350, limits assumed)
T1 sequence (looked up): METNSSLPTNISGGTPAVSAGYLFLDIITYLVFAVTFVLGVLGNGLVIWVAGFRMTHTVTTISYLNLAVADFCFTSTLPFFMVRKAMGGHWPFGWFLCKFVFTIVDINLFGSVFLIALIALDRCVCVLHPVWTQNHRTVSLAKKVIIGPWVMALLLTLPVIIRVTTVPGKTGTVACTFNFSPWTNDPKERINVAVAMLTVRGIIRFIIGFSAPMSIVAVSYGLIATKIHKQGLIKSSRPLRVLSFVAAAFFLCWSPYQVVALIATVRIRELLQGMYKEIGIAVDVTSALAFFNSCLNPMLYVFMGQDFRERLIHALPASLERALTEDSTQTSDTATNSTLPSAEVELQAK
PROTOCOL DETAILS: cell-based or functional assay
Bridges are numbered along the chain shown (N, C = ends). [ ]: non-standard residue; d: D form. Hyp = O=C(O)[C@@H]1C[C@@H](O)CN1; Pip = O=C(O)[C@@H]1CCCCN1; Dab = NCC[C@H](N)C(=O)O
Classify by measured β-Arrestin IC50: class 1 if it is equal to or exceeds 90 nM, class 0 if it is smaller.

Field: example entries. Status: answers known.
cyclo(YH[Dab]CWG[dP]WTICYEK[dP]P) (disulfide 4-11) [cyclo(-Tyr-His-Dab-Cys-Trp-Gly-^DPro-Trp-Thr-Ile-Cys-Tyr-Glu-Lys-^DPro-Pro-)]	class 1
cyclo(YHKCHG[dP]WTICYEK[dP][Pip]) (disulfide 4-11) [cyclo(-Tyr-His-Lys-Cys-His-Gly-^DPro-Trp-Thr-Ile-Cys-Tyr-Glu-Lys-^DPro-Pip-)]	class 1
cyclo(YHTCHG[dP]WTICYQK[dP]P) (disulfide 4-11; SMILES CC[C@H](C)[C@@H]1NC(=O)[C@H]([C@@H](C)O)NC(=O)[C@H](Cc2c[nH]c3ccccc23)NC(=O)[C@H]2CCCN2C(=O)CNC(=O)[C@H](Cc2c[nH]cn2)NC(=O)[C@@H]2CSSC[C@H](NC1=O)C(=O)N[C@@H](Cc1ccc(O)cc1)C(=O)N[C@@H](CCC(N)=O)C(=O)N[C@@H](CCCCN)C(=O)N1CCC[C@@H]1C(=O)N1CCC[C@H]1C(=O)N[C@@H](Cc1ccc(O)cc1)C(=O)N[C@@H](Cc1c[nH]cn1)C(=O)N[C@@H]([C@@H](C)O)C(=O)N2) [cyclo(-Tyr-His-Thr-Cys-His-Gly-^DPro-Trp-Thr-Ile-Cys-Tyr-Gln-Lys-^DPro-Pro-)]	class 1

Assess whether reported β-Arrestin IC50 for cyclo(YHKCWG[dP]WTICYEK[dP]K) (disulfide 4-11; SMILES CC[C@H](C)[C@@H]1NC(=O)[C@H]([C@@H](C)O)NC(=O)[C@H](Cc2c[nH]c3ccccc23)NC(=O)[C@H]2CCCN2C(=O)CNC(=O)[C@H](Cc2c[nH]c3ccccc23)NC(=O)[C@@H]2CSSC[C@H](NC1=O)C(=O)N[C@@H](Cc1ccc(O)cc1)C(=O)N[C@@H](CCC(=O)O)C(=O)N[C@@H](CCCCN)C(=O)N1CCC[C@@H]1C(=O)N[C@@H](CCCCN)C(=O)N[C@@H](Cc1ccc(O)cc1)C(=O)N[C@@H](Cc1c[nH]cn1)C(=O)N[C@@H](CCCCN)C(=O)N2) [cyclo(-Tyr-His-Lys-Cys-Trp-Gly-^DPro-Trp-Thr-Ile-Cys-Tyr-Glu-Lys-^DPro-Lys-)] sits at 90 nM or higher. class 0

Check the entry cyclo(YHKCHG[dP]WTICYEK[dA]P) (disulfide 4-11; SMILES CC[C@H](C)[C@@H]1NC(=O)[C@H]([C@@H](C)O)NC(=O)[C@H](Cc2c[nH]c3ccccc23)NC(=O)[C@H]2CCCN2C(=O)CNC(=O)[C@H](Cc2c[nH]cn2)NC(=O)[C@@H]2CSSC[C@H](NC1=O)C(=O)N[C@@H](Cc1ccc(O)cc1)C(=O)N[C@@H](CCC(=O)O)C(=O)N[C@@H](CCCCN)C(=O)N[C@H](C)C(=O)N1CCC[C@H]1C(=O)N[C@@H](Cc1ccc(O)cc1)C(=O)N[C@@H](Cc1c[nH]cn1)C(=O)N[C@@H](CCCCN)C(=O)N2) [cyclo(-Tyr-His-Lys-Cys-His-Gly-^DPro-Trp-Thr-Ile-Cys-Tyr-Glu-Lys-^DAla-Pro-)] : does β-Arrestin IC50 equal or exceed 90 nM? class 0

β-Arrestin IC50 >= 90 nM for cyclo(YHKCHG[dP]WTICYDK[dP]P) (disulfide 4-11; SMILES CC[C@H](C)[C@@H]1NC(=O)[C@H]([C@@H](C)O)NC(=O)[C@H](Cc2c[nH]c3ccccc23)NC(=O)[C@H]2CCCN2C(=O)CNC(=O)[C@H](Cc2c[nH]cn2)NC(=O)[C@@H]2CSSC[C@H](NC1=O)C(=O)N[C@@H](Cc1ccc(O)cc1)C(=O)N[C@@H](CC(=O)O)C(=O)N[C@@H](CCCCN)C(=O)N1CCC[C@@H]1C(=O)N1CCC[C@H]1C(=O)N[C@@H](Cc1ccc(O)cc1)C(=O)N[C@@H](Cc1c[nH]cn1)C(=O)N[C@@H](CCCCN)C(=O)N2) [cyclo(-Tyr-His-Lys-Cys-His-Gly-^DPro-Trp-Thr-Ile-Cys-Tyr-Asp-Lys-^DPro-Pro-)] ? class 0

Record cyclo(YHACWG[dP]WTICYAK[dP]P) (disulfide 4-11; SMILES CC[C@H](C)[C@@H]1NC(=O)[C@H]([C@@H](C)O)NC(=O)[C@H](Cc2c[nH]c3ccccc23)NC(=O)[C@H]2CCCN2C(=O)CNC(=O)[C@H](Cc2c[nH]c3ccccc23)NC(=O)[C@@H]2CSSC[C@H](NC1=O)C(=O)N[C@@H](Cc1ccc(O)cc1)C(=O)N[C@@H](C)C(=O)N[C@@H](CCCCN)C(=O)N1CCC[C@@H]1C(=O)N1CCC[C@H]1C(=O)N[C@@H](Cc1ccc(O)cc1)C(=O)N[C@@H](Cc1c[nH]cn1)C(=O)N[C@@H](C)C(=O)N2) [cyclo(-Tyr-His-Ala-Cys-Trp-Gly-^DPro-Trp-Thr-Ile-Cys-Tyr-Ala-Lys-^DPro-Pro-)] ; criterion: β-Arrestin IC50 no lower than 90 nM. Met? class 1

Tell me whether β-Arrestin IC50 is at least 90 nM here: cyclo(YHACHG[dP]WTICYEK[dP]P) (disulfide 4-11; SMILES CC[C@H](C)[C@@H]1NC(=O)[C@H]([C@@H](C)O)NC(=O)[C@H](Cc2c[nH]c3ccccc23)NC(=O)[C@H]2CCCN2C(=O)CNC(=O)[C@H](Cc2c[nH]cn2)NC(=O)[C@@H]2CSSC[C@H](NC1=O)C(=O)N[C@@H](Cc1ccc(O)cc1)C(=O)N[C@@H](CCC(=O)O)C(=O)N[C@@H](CCCCN)C(=O)N1CCC[C@@H]1C(=O)N1CCC[C@H]1C(=O)N[C@@H](Cc1ccc(O)cc1)C(=O)N[C@@H](Cc1c[nH]cn1)C(=O)N[C@@H](C)C(=O)N2) [cyclo(-Tyr-His-Ala-Cys-His-Gly-^DPro-Trp-Thr-Ile-Cys-Tyr-Glu-Lys-^DPro-Pro-)] class 1

For this binder, is measured β-Arrestin IC50 90 nM or higher? cyclo(YHKCHG[dP]WTICYEK[dP][Hyp]) (disulfide 4-11) [cyclo(-Tyr-His-Lys-Cys-His-Gly-^DPro-Trp-Thr-Ile-Cys-Tyr-Glu-Lys-^DPro-Pro((4R)OH)-)] class 1
